- experiment-notes: hexokinase 1 inhibition, dose response, selectivity assay for HKDC1 inhibitor project, biochemical (AID 504763)
readout-name: IC50

INPUT: Give IC50 for the following compound: COc1cc(NC(=O)c2cnc(N)s2)cc(C(=O)Nc2cccc(C(F)(F)F)c2)c1
OUTPUT: > 80 µM

INPUT: // fetch IC50 given entry Cc1cccc(-n2c3nc(=O)[nH]c(=O)c-3cc3cc([N+](=O)[O-])ccc32)c1
OUTPUT: > 80 µM

INPUT: Please indicate IC50 recorded for O=C1NC(=S)N(c2ccc(F)cc2)C(=O)C1=Cc1ccoc1
OUTPUT: > 80 µM

###

- experiment-notes: hexokinase 1 inhibition, dose response, selectivity assay for HKDC1 inhibitor project, biochemical (AID 504763)
pIC50: −log10 of the molar value.
readout-name: pIC50

INPUT: Please report the measured pIC50 for COc1ccc(OC)c(N2C(=O)C(=Cc3ccco3)C(=O)NC2=S)c1 [MLS001197216]
OUTPUT: < 4.10

INPUT: Recall and state the measured pIC50 for COC(=O)c1ccccc1NC1=CC(=NS(=O)(=O)c2ccc(C(=O)O)cc2)c2ccccc2C1=O .
OUTPUT: 5.24

INPUT: Indicate its recorded pIC50; the compound in question is O=C1C=CC(=O)c2c(O)c(CO)c(CO)c(O)c21
OUTPUT: < 4.10

INPUT: For the compound O=C(NC1=CC(=O)c2ccccc2C1=O)c1ccccc1 [N-(1,4-dioxo-2-naphthalenyl)benzamide] , report pIC50.
OUTPUT: 5.40

INPUT: State its pIC50: Cc1nc([N+](=O)[O-])c(Br)n1Cc1ccc(Cl)c(Cl)c1 [MLS000730654]
OUTPUT: < 4.10

INPUT: Return pIC50 for the following compound: Cc1[nH]c2c(=O)c3c(c(=O)c=2[nH]c1C)C1C=CC3CC1 [MLS002701599]
OUTPUT: 5.68

INPUT: Note down pIC50 recorded for Cc1cccc(N2C(=O)NC(=O)C(=Cc3cc(C)n(-c4sc5c(c4C#N)CCCC5)c3C)C2=O)c1C
OUTPUT: < 4.10

INPUT: Query pIC50 for CCCCC[C@H](O)/C=C/[C@@H]1[C@@H](C/C=C\CCCC(=O)OC)[C@@H](O)C[C@H]1O [MLS000028823]
OUTPUT: < 4.10

INPUT: Tell me measured pIC50 for O=[N+]([O-])c1ccc(Sc2nc3ccccc3o2)c([N+](=O)[O-])c1 [MLS000532050] please.
OUTPUT: < 4.10

###

- experiment-notes: hexokinase 1 inhibition, dose response, selectivity assay for HKDC1 inhibitor project, biochemical (AID 504763)
readout-name: pIC50
# pIC50: negative log10 of molar concentration; output just the value

INPUT: Input O=C(CSc1nnc(CCCN2C(=O)c3cccc4cccc(c34)C2=O)n1-c1ccccc1)N1CCCCC1 , output reported pIC50.
OUTPUT: 5.01

INPUT: Give the reported value of pIC50 for this record: Cc1cc2cc(CCNC(=O)c3ccc(S(=O)(=O)N4CCOCC4)cc3)c(O)nc2cc1C
OUTPUT: 4.94

INPUT: Please indicate pIC50 recorded for O=C1C(SCCO)=C(SCCO)C(=O)c2ccccc21
OUTPUT: 5.09

INPUT: Quick one: give measured pIC50 for NS(=O)(=O)c1ccc(N=Nc2c(=O)[nH]n3c(=O)c4c([nH]c23)CCCC4)cc1
OUTPUT: 4.91

INPUT: Identify the reported pIC50 for the following entry. Cc1cc(C)n2cc(CSc3nnc(-c4ccccc4)c(-c4ccccc4)n3)nc2n1
OUTPUT: 4.94

INPUT: Find the measured pIC50 of Cc1ccc(S(=O)(=O)N=C2C=C(Nc3cccc(C(=O)O)c3)C(=O)c3ccccc32)c(C)c1 and report it.
OUTPUT: 4.96

INPUT: Tell me its pIC50 given CC(=O)N(C1=C(Cl)C(=O)c2ccccc2C1=O)c1ccc(C(=O)O)cc1 as the entry.
OUTPUT: 5.06

###

- experiment-notes: hexokinase 1 inhibition, dose response, selectivity assay for HKDC1 inhibitor project, biochemical (AID 504763)
- particulars: inactive by the depositor's call
Assign pIC50 to each entry below.
# pIC50 = -log10(concentration in molar units)

INPUT: Look up and state reported pIC50 for CCCc1nc2oc3c(NCC4CCCO4)ncnc3c2c2c1COC(C)(C)C2 (centres undefined) [MLS000042555]
OUTPUT: 4.50

INPUT: Dear colleague, please send me the reported pIC50 for COc1ccc(OC)c2nc(O)c(CCNC(=O)c3cc4ccccc4o3)cc12 [SMR000018515] when you can.
OUTPUT: 4.62

INPUT: Look up pIC50 of CCN(CC)c1ccc2c(c1)oc(=O)c1c(Cl)cc(=O)oc12 and report it.
OUTPUT: 4.26

INPUT: Look up and state reported pIC50 for CN(C)c1ccc(Cc2cc3c(O)ccc(O)c3cc(Cc3ccc(N(C)C)cc3)c2=O)cc1 [SMR001565845]
OUTPUT: 4.13

INPUT: Return pIC50 for the following compound: COC(=O)c1ccc(CCc2cc(O)c(Br)cc2O)cc1 [SMR001565911]
OUTPUT: 4.63

INPUT: Respond only with pIC50 recorded for CCOC(=O)C1=C(Cc2ccc(F)cc2)C(=O)c2ccccc2C1=O
OUTPUT: 4.60

INPUT: Identify measured pIC50 corresponding to N#Cc1c(SCC(=O)Nc2nc3ccc(Br)cc3s2)sc2c(O)cc(=O)[nH]c12
OUTPUT: 4.59

INPUT: Query pIC50 for COc1cc2c(cc1OC)-c1cc(NCc3ccccn3)nc(=O)n1CC2
OUTPUT: 4.17

INPUT: Provide pIC50 value for the following compound: CC(C)Nc1nnc(SCC(=O)Nc2ccc3c(c2)C(=O)c2ccccc2C3=O)s1 [MLS000390413]
OUTPUT: 4.65

INPUT: Please look at this compound and report its pIC50: NC1=CC(=O)C(=O)c2ccccc21
OUTPUT: 4.24

INPUT: Recall and state the measured pIC50 for COC(=O)c1ccc(NCc2cc(O)ccc2O)cc1 .
OUTPUT: 4.67

INPUT: In one line, give reported pIC50 of the entry Cc1ccc(S(=O)(=O)Nc2c(O)ccc3ccccc23)cc1 .
OUTPUT: 4.56

INPUT: Answer with reported pIC50 of Cc1nc(COC(=O)c2cc(O)c3ccccc3c2O)cs1
OUTPUT: 4.60

INPUT: Look up and state reported pIC50 for Cc1oc2c(c1C(=O)c1ccccc1)C(=O)C(=O)c1ccccc1-2
OUTPUT: 4.11

INPUT: Indicate its recorded pIC50; the compound in question is CCOc1ccccc1Nc1nnc(SCc2nnc(-c3cc(OC)c(OC)c(OC)c3)o2)s1
OUTPUT: 4.66

INPUT: Identify the reported pIC50 for the following entry. CCN(CC)Cc1cc(O)c(CN(CC)CC)cc1O
OUTPUT: 4.26

INPUT: Provide only the value of recorded pIC50 for COc1ccc(S(=O)(=O)Nc2cc(SCC(=O)O)c(O)c3ccccc23)cc1
OUTPUT: 4.20

INPUT: State its pIC50: O=C1C(Cl)=C(NC(=O)c2ccccc2)C(=O)C(Cl)=C1NC(=O)c1ccccc1
OUTPUT: 4.41

INPUT: Retrieve pIC50 measured for Cc1ccc(C(=O)c2c(C)oc3c2C(=O)C(=O)c2ccccc2-3)cc1 and print it.
OUTPUT: 4.67

INPUT: Annotate the compound Cc1ccc(-n2c3nc(=O)[nH]c(=O)c-3cc3cc([N+](=O)[O-])ccc32)cc1C with its measured pIC50.
OUTPUT: 4.44

INPUT: Return pIC50 for the following compound: O=S(=O)(Nc1cc(Sc2nc[nH]n2)c(O)c2ccccc12)c1ccccc1
OUTPUT: 4.24

INPUT: Retrieve pIC50 measured for Cc1cc(C)n2nc(SCc3nnc(SCc4ccccc4Cl)s3)nc2n1 and print it.
OUTPUT: 4.63

INPUT: Please give measured pIC50 of the following entry: O=S(=O)(Nc1ccc(O)c2ccccc12)c1cccs1
OUTPUT: 4.26

INPUT: For COc1ccc(N2C3=C(CC4=C2CCCC4=O)C(=O)CCC3)cc1 , write its pIC50.
OUTPUT: 4.62

INPUT: Name the recorded pIC50 of the compound listed here: COC1=CC(=O)C(C2CC(=O)c3c(O)cc(O)cc3O2)=CC1=O (centres undefined) [SMR001565628]
OUTPUT: 4.44

INPUT: Name the recorded pIC50 of the compound listed here: O=C1C(Cl)=C(N2CCCCC2)C(=O)C(Cl)=C1c1cnc(N2CCCCC2)s1 [MLS000550549]
OUTPUT: 4.15

INPUT: Fill in reported pIC50 for this entry: Cc1cc(C)c(S(=O)(=O)N=C2C=C(Nc3ccc(C(=O)O)cc3)C(=O)c3ccccc32)c(C)c1 [MLS000948031]
OUTPUT: 4.56

INPUT: Note pIC50 for the compound shown: COc1ccc(NC(=O)CSc2ccc(-c3cccnc3)nn2)c(OC)c1
OUTPUT: 4.67

INPUT: Assign pIC50 to the following record: CCN(CC)CCNc1cc(C)nc2c1C(=O)C(=O)C=C2N1CCCCC1
OUTPUT: 4.42

INPUT: Specify reported pIC50 for the compound shown: CCCCNC(=O)c1sc(=S)n2c1[nH]c(=O)c1ccc(C(=O)NCCc3ccc(OC)c(OC)c3)cc12
OUTPUT: 4.67

INPUT: Please give the documented pIC50 of Cc1oc2c(c1C(=O)c1ccc(Cl)cc1)C(=O)C(=O)c1ccccc1-2
OUTPUT: 4.40

INPUT: Find the measured pIC50 of COC(=O)c1ccccc1NC1=CC(=NS(=O)(=O)c2cccs2)c2ccccc2C1=O and report it.
OUTPUT: 4.24

INPUT: Specify reported pIC50 for the compound shown: COC(=O)c1ccc(NC(=O)CSc2n[nH]c(-c3ccncc3)n2)cc1
OUTPUT: 4.65

INPUT: Retrieve pIC50 measured for COP(=O)(OC)c1ccc(NCc2cc(O)ccc2O)cc1 [MLS002702382] and print it.
OUTPUT: 4.58
